# measurement.target: T1, human TREM2 (human, UniProt Q9NZC2 19-174, limits assumed)
# T1 sequence: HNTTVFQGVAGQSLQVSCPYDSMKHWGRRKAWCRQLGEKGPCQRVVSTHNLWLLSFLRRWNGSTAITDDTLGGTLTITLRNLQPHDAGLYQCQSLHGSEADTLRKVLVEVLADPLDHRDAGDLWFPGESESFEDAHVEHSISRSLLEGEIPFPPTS
# test.name: yeast-displayed Fab FACS, 2nd screen 2 nM
value.type: binding signal fold over 6E7 parental (fold)
Record the value in fold, omitting the unit from your answer.

Past entries and their recorded results:
V4 (Fab, V domains shown) VH: EVQLVQSGAEVKKPGESLKISCKGSGYSFGSYWIAWVRQMPGKGLEWMGIIYPGDSDTRVSPSFQGQVTISADKSISTAYLQWSSLKASDTAMYFCARSRTFYYDSSDYFDYWGQGTLVTVSS VL: DIQMTQSPSSVSASVGDRVTITCRASQGISSWLAWYQQKPGKAPKLLIYAASRLQNGVPSRFSGSGSGTDFTLTISSLQPEDFATYFCQQADSYPRTFGQGTKLEIK    5.88
V29 (Fab, V domains shown) VH: EVQLVQSGAEVKKPGESLKISCKGSGYSFKSYWIAWVRQMPGKGLEWMGIIYPGDSDTRYSPSFQGQVTISADKSISTAYLQWSSLKASDTAMYFCARQRTFYYDSSDYFDYWGQGTLVTVSS VL: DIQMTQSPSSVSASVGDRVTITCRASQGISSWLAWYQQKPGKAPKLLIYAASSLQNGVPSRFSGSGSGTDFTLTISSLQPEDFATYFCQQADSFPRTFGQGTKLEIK    0.84
V62 (Fab, V domains shown) VH: EVQLVQSGAEVKKPGESLKISCKGSGYSFGSYWIAWVRQMPGKGLEWMGIIYPGDSDTRYAPSFQGQVTISADKSISTAYLQWSSLKASDTAMYFCARQRTFYYDSSGYFDYWGQGTLVTVSS VL: DIQMTQSPSSVSASVGDRVTITCRASQGISSWLAWYQQKPGKAPKLLIYAASSLQRGVPSRFSGSGSGTDFTLTISSLQPEDFATYFCGQADSFPRTFGQGTKLEIK    1.87
V26 (Fab, V domains shown) VH: EVQLVQSGAEVKKPGESLKISCKGSGYSFTSYWIGWVRQMPGKGLEWMGTIYPGDSDTRYSPSFQGQVTISADKSISTAYLQWSSLKASDTAMYFCARQRTMYYDSSDYFDAWGQGTLVTVSS VL: DIQMTQSPSSVSASVGDRVTITCRASQGISSWLAWYQQKPGKAPKLLIYAASSLQRGVPSRFSGSGSGTDFTLTISSLQPEDFATYFCQQADSYPRTFGQGTKLEIK    2.83

From here, focus on the item given below.
## Input Which binding signal fold over 6E7 parental value is on record for V52 (Fab, V domains shown) VH: EVQLVQSGAEVKKPGESLKISCKGSGYSFESYWIAWVRQMPGKGLEWMGIIYPGDSDTRYSPSFQGQVTISADKSISTAYLQWSSLKASDTAMYFCARGRTFYYDSSDYFDYWGQGTLVTVSS VL: DIQMTQSPSSVSASVGDRVTITCRASQGISSWLAWYQQKPGKAPKLLIYAASSLQRGVPSRFSGSGSGTDFTLTISSLQPEDFATYFCQQADRFPRTFGQGTKLEIK ?
## Output 1.78
